Test system: HEK-293T
Assay: Incucyte cell viability with HEK293T; further: unitless GR value; below 1 slowed growth and below 0 cell loss
Assay type: toxicity, cell-based
Conditions: human, 0 h, 10 µM, compound concentration 10 uM, replicate number 1, timepoint 0 hours
# Growth Rate listing for each entry below
Format: numeric value only, no unit, no commentary.

[
  {
    "compound": "CN(C(=O)/C=C/c1ccoc1)[C@@H]1CC[C@@]2(O)[C@H]3Cc4ccc(O)c5c4[C@@]2(CCN3CC2CC2)[C@H]1O5",
    "measured target": "HEK-293T",
    "recorded number": 0.87
  },
  {
    "compound": "CCCN(CCC)[C@@H]1CCc2ccc3[nH]c(C#N)cc3c2C1.Cl",
    "measured target": "HEK-293T",
    "recorded number": 0.55
  },
  {
    "compound": "Cc1cc(NC(=O)NCCN2CCC(O)(Cc3ccccc3)CC2)c2ccccc2n1",
    "measured target": "HEK-293T",
    "recorded number": 0.55
  }
]

Let us examine a further case.
Req: Please give the measured Growth Rate for this compound: Cl.N=C(N)NC(=O)Cc1c(Cl)cccc1Cl [GUANFACINE HYDROCHLORIDE]
Resp: 0.44

From: ChEMBL document CHEMBL5058564
